B1: SPRY1 (parent)
chain: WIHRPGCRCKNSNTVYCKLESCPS

variants of: B1; test: protein stability index of a GFP-peptide fusion (GPS, HEK-293T) (PSI 1-6); higher = more stable; conditions: c terminus: a fixed tail appended;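 further: lentivirally expressed fusions sorted by FACS into six bins by GFP to DsRed ratio, PSI derived from sequencing read proportions per bin multiplied by bin number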
VALUE KIND: protein stability index
In your answer, state the number alone without any accompanying words.

q: Please indicate protein stability index recorded for Y16P
a: 2.56

q: Output protein stability index of W1V
a: 3.03

q: Output protein stability index of P5W
a: 1.82

q: Identify protein stability index associated with the variant K10Q
a: 2.81

q: Quote protein stability index reported for I2A please.
a: 2.68

q: Item C22G : provide protein stability index
a: 2.29

More entries:
q: Specify protein stability index for R4W and stop.
a: 1.97

q: Write down protein stability index measured for item E20D
a: 2.26

q: Please look at this variant and report its protein stability index: P23H
a: 2.23

q: Tell me protein stability index reported for W1T
a: 3.45

q: Answer with the recorded protein stability index for the variant listed here: V15Q
a: 2.65

q: Name the recorded protein stability index of the item Y16L in your answer.
a: 2.28

q: Item V15H : provide protein stability index
a: 2.06

q: Tell us which protein stability index value is on record for E20F
a: 2.37

q: Give protein stability index for N11C
a: 1.83

Source: the supplement of paper PMC10567573
